Assign pIC50 to each entry below.
Reminder that pIC50 is minus the log10 of a molar concentration.

Problem: State measured pIC50 of the molecule CC(C)c1cccc2c1NC(=O)[C@@H](NC(=O)[C@H](CCC(F)(F)F)[C@H](CCC(F)(F)F)C(N)=O)N=C2c1ccccc1 with Neurogenic locus notch homolog protein 3 (Human, UniProt Q9UM47).
Sequence (Q9UM47 whole entry): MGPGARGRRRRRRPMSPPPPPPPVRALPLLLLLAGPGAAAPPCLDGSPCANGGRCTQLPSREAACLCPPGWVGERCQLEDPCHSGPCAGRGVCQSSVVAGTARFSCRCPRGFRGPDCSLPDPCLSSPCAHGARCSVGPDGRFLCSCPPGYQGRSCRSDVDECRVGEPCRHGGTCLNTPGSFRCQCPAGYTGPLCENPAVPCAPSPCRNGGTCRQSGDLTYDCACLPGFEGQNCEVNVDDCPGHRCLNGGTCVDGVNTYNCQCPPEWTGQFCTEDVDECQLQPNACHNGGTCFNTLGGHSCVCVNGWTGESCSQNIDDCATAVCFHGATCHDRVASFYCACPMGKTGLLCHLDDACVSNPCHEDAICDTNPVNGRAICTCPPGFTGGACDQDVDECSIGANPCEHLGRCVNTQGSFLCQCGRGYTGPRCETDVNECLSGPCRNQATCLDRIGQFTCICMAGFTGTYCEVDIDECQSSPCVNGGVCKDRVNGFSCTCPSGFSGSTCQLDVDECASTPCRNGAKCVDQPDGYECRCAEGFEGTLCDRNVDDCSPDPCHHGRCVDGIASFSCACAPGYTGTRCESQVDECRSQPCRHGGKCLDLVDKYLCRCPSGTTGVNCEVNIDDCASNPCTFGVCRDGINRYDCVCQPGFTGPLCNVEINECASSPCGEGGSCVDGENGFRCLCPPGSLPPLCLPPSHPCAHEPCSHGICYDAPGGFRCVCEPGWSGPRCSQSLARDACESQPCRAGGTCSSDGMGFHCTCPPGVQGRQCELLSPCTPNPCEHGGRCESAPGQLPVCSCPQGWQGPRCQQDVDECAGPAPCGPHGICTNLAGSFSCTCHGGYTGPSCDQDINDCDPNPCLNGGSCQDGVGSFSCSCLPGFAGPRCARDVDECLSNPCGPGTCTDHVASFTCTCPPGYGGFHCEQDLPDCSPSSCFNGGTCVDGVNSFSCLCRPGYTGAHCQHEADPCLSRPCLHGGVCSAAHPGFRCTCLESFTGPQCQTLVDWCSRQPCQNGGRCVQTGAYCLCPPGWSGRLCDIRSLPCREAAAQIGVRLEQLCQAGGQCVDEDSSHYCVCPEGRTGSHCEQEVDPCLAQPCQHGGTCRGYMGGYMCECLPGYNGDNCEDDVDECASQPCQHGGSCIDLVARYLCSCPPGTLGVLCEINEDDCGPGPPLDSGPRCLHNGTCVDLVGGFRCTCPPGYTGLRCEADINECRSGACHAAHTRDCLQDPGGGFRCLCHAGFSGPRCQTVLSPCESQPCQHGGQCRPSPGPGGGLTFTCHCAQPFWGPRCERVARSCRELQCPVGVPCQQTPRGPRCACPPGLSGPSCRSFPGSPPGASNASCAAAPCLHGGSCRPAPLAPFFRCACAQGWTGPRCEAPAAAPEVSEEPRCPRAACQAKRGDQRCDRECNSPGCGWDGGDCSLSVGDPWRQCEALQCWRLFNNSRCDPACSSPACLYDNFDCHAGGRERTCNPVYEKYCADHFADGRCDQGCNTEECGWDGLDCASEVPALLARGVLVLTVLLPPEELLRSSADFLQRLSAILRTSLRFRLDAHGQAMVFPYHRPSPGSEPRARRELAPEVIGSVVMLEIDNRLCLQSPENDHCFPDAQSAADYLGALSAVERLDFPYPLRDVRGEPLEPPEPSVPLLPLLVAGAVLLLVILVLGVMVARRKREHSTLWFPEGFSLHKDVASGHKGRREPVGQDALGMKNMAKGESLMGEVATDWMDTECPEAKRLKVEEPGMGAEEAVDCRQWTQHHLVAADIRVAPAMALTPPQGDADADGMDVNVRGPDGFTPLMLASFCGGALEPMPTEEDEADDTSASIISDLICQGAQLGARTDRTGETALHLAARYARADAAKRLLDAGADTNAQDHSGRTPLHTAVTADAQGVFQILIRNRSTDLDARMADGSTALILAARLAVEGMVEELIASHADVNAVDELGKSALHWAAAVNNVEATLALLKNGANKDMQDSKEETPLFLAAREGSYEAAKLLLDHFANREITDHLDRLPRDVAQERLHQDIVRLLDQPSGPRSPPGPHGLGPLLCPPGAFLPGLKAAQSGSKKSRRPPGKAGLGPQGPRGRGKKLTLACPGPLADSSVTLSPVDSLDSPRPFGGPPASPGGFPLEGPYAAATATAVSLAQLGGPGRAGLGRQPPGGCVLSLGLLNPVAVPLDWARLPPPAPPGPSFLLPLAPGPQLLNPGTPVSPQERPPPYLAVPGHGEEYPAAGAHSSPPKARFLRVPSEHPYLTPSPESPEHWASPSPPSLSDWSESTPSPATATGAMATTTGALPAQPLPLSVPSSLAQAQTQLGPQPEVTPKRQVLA
Solution: 8.31

Problem: State measured pIC50 of the molecule COc1cccc2c1NC(=O)[C@@H](NC(=O)[C@H](CCC(F)(F)F)[C@H](CCC(F)(F)F)C(N)=O)N=C2c1cccc(C)c1 with Neurogenic locus notch homolog protein 3 (Human, UniProt Q9UM47).
Solution: 8.24

Data origin: BindingDB's records for patent US9273014
